These measurements were taken from patent US9815810B1.

assay: Cannabinoid profile of crystalline product samples by HPLC-DAD-MS analysis (cannabinoid preservation); conditions: control crystalline product, sucrose, without rapid cooling process
measure name: Cannabinoid quantity in Control R104 (mg/g)

INSERT INTO measurements (molecule, measure_name, quantitative_result) VALUES
  ('CCCc1cc(O)c2c(c1)OC(C)(C)[C@@H]1CCC(C)=C[C@@H]21 [THCV, Tetrahydrocannabivarin]', 'Cannabinoid quantity in Control R104', 0.34),
  ('CCCCCc1cc(O)c2c(c1)OC(C)(C)c1ccc(C)cc1-2 [CBN, Cannabinol]', 'Cannabinoid quantity in Control R104', 0.57);

* * *

assay: Cannabinoid profile of crystalline product samples by HPLC-DAD-MS analysis (cannabinoid preservation); details: average of Samples R103A-C; sucrose, without rapid cooling process
measure name: Cannabinoid quantity, Avg R103A-C

INSERT INTO results (compound, measure_name, result) VALUES
  ('CCCCCc1cc2c(c(O)c1C(=O)O)[C@@H]1C=C(C)CC[C@H]1C(C)(C)O2 [THC-A, Tetrahydrocannabinolic acid]', 'Cannabinoid quantity, Avg R103A-C', '5.46 mg/g'),
  ('CCCCCc1cc2c(c(O)c1C(=O)O)C1C3C(CCC3(C)O2)C1(C)C (stereo not shown)', 'Cannabinoid quantity, Avg R103A-C', '0.39 mg/g'),
  ('CCCCCc1cc(O)c2c(c1)OC(C)(C)[C@@H]1CC=C(C)C[C@@H]21 [Δ8-THC, Δ-8-tetrahydrocannabinol]', 'Cannabinoid quantity, Avg R103A-C', '0.06 mg/g'),
  ('C=C(C)[C@@H]1CCC(C)=C[C@H]1c1c(O)cc(CCCCC)c(C(=O)O)c1O', 'Cannabinoid quantity, Avg R103A-C', 'No detectable quantities'),
  ('CCCCCc1cc(O)c(C/C=C(\C)CCC=C(C)C)c(O)c1', 'Cannabinoid quantity, Avg R103A-C', '0.28 mg/g'),
  ('C=C(C)[C@@H]1CCC(C)=C[C@H]1c1c(O)cc(CCCCC)cc1O [CBD, Cannabidiol, reference compound]', 'Cannabinoid quantity, Avg R103A-C', 'No detectable quantities'),
  ('CCCc1cc(O)c2c(c1)OC(C)(C)[C@@H]1CCC(C)=C[C@@H]21 [THCV, Tetrahydrocannabivarin]', 'Cannabinoid quantity, Avg R103A-C', '0.16 mg/g'),
  ('CCCCCc1cc(O)c2c(c1)OC(C)(C)c1ccc(C)cc1-2', 'Cannabinoid quantity, Avg R103A-C', '1.03 mg/g'),
  ('CCCCCc1cc(O)c2c(c1)OC(C)(CCC=C(C)C)C=C2 (stereo not shown)', 'Cannabinoid quantity, Avg R103A-C', '0.45 mg/g');
